Target desc: T1, HLA-A*02:01 (human)
T1 construct: Peptide-receptive HLA-A*02:01 monomer obtained by UV cleavage of a UV-sensitive ligand; captured on streptavidin plates; also called peptide-receptive MHC molecules; MHC class I
Protocol text: UV-ligand exchange, anti-b2m ELISA; grade of peptide exchange yield (>10% = +; >20% = ++; >50 = +++; >75% = ++++)
Below, each entry is listed alongside its reported peptide exchange yield.

Before answering, review these 3 worked examples.
Binder	Metric	Result
ALYTSGHLL	peptide exchange yield	> 75%
ALWGFFPVLL	peptide exchange yield	> 75%
VLDEGLTSV	peptide exchange yield	> 75%

QUERY: Bench note: what peptide exchange yield did `SLRAFLMPI` show?
RESULT: 20 to 50%
